target: UniProt:P63000; test: Ras GTP binding domain inhibition assay (Cy3-GTP/Cy5-GTP competition); conditions: without SOS, read-out: Rac-1: % inh.
test-readout: inhibition at 20 µM

Below are worked cases with known answers.
[in] Return inhibition at 20 µM for the following compound: CCN(CC)C(=O)c1nc(-c2nccn2C)nc(O)c1O [drawing 964]
[out] 26 to 50%

[in] Return inhibition at 20 µM for the following compound: COc1ncccc1-c1sc2nc(-c3nccn3C)nc(N3CCC(OC)C3)c2c1-c1ccccc1 (stereo not drawn) [drawing 978]
[out] 26 to 50%

New cases:
[in] Return inhibition at 20 µM for the following compound: O=C(NC1CCC1)c1nc(-c2ccccn2)nc(O)c1O [drawing 944]
[out] 76 to 100%

---

test system: MIA PaCa-2 pancreatic cancer cell line; test: Cell proliferation assay (DAPI); type: cell-based; details: Homo sapiens; 10 μM, MIA PaCa-2 (Table 5A); read-out: % Inhibition of cell proliferation, MIA PaCa-2 % inh
test-readout: inhibition at 10 µM

Below are worked cases with known answers.
[in] Return inhibition at 10 µM for the following compound: COc1c(F)cccc1-c1sc2nc(-c3nccn3C)nc(N[C@@H]3CC[C@H](OC)C3)c2c1-c1ccccc1 [drawing 622]
[out] 76 to 100%

[in] Return inhibition at 10 µM for the following compound: CO[C@H]1CC[C@@H](Nc2nc(-c3nccn3C)nc3sc(-c4cccc5[nH]ncc45)c(-c4ccccc4)c23)C1 [drawing 624]
[out] 76 to 100%

[in] Return inhibition at 10 µM for the following compound: Cc1c(-c2ccn(C)n2)sc2nc(-c3nccn3C)nc(NCCOC(=O)N(C)C)c12 [drawing 653]
[out] 26 to 50%

[in] Return inhibition at 10 µM for the following compound: CCn1cc(Nc2nc(-c3ccccn3)nc(O)c2OC)cn1 [drawing 616]
[out] 0%

New cases:
[in] Return inhibition at 10 µM for the following compound: COC1CCC(Nc2nc(-c3nccn3C)nc3sc(-c4cccc5[nH]ncc45)c(C)c23)C1 (stereo not shown) [drawing 630]
[out] 76 to 100%

[in] Return inhibition at 10 µM for the following compound: CC(C)COc1ccc(-c2csc3c(O)nc(-c4nccn4Cc4ccccn4)nc23)cn1 [drawing 634]
[out] 76 to 100%

[in] Return inhibition at 10 µM for the following compound: COC1CCC(Nc2nc(-c3nccn3C)nc3sc(-c4cccc5[nH]ncc45)c(-c4ccccc4)c23)C1 (stereo not shown) [drawing 623]
[out] 76 to 100%

[in] Return inhibition at 10 µM for the following compound: Cn1ccc(-c2sc3nc(-c4nccn4C)nc(N[C@@H]4CC[C@H](O)C4)c3c2-c2ccccc2)n1 (racemic) [drawing 644]
[out] 26 to 50%

[in] Return inhibition at 10 µM for the following compound: COCCNC(=O)c1sc2nc(-c3nccn3C)nc(N[C@H]3C[C@@H](OC)C3)c2c1-c1ccccc1 [drawing 656]
[out] 26 to 50%

[in] Return inhibition at 10 µM for the following compound: CO[C@H]1CC[C@@H](Nc2nc(-c3nccn3C)nc3sc(-c4ccn(C(C)C)n4)c(-c4ccccc4)c23)C1 [drawing 647]
[out] 76 to 100%

---

target: Rac-1 (Homo sapiens); assay: Ras GTP binding domain inhibition assay (Cy3-GTP/Cy5-GTP competition); conditions: with SOS, read-out: Rac-1 + SOS: % inh.
inhibition at 20 µM values, listed per item

Below are worked cases with known answers.
[in] Return inhibition at 20 µM for the following molecule: Oc1nc(-c2ncc3ccccn23)nc2c(-c3ccccn3)csc12 [drawing 969]
[out] 76 to 100%

[in] Return inhibition at 20 µM for the following molecule: CO[C@H]1C[C@@H](Nc2nc(-c3nccn3C)nc3sc(C(=O)N4CCOCC4)c(-c4ccccc4)c23)C1 [drawing 1057]
[out] 76 to 100%

New cases:
[in] Return inhibition at 20 µM for the following molecule: COCCNc1nc(-c2nccn2C)nc2sc(-c3cccc(OC)c3)c(-c3ccc(OC)cc3)c12 [drawing 1010]
[out] 26 to 50%

[in] Return inhibition at 20 µM for the following molecule: COCCCNc1nc(-c2nccn2C)nc2sc(-c3ccn(C)n3)c(-c3ccccc3)c12 [drawing 1001]
[out] 26 to 50%

[in] Return inhibition at 20 µM for the following molecule: Oc1nc(-c2cn(-c3ccccc3)cn2)nc2c(-c3ccccn3)csc12 [drawing 982]
[out] 1 to 25%

[in] Return inhibition at 20 µM for the following molecule: CO[C@H]1CC[C@@H](Nc2nc(-c3nccn3C)nc3sc(C(=O)N4CCOCC4)c(-c4ccccc4)c23)C1 [drawing 1062]
[out] 76 to 100%

Sourced from patent US20250296938A1
